The next entries give measured pIC50 for Receptor-interacting serine/threonine-protein kinase 1 (Homo sapiens, UniProt Q13546).
pIC50: −log10 of the molar value.
MEASURED QUANTITY: pIC50

1. NC(=O)c1cccc(-c2ccc3c(c2)CCN3C(=O)Cc2cccc(OC(F)(F)F)c2)c1: 6.99
2. CCc1nc(-c2ccc3c(c2)CCN3C(=O)Cc2cccc(OC(F)(F)F)c2)c2c(N)nccn12: 6.95

====

- TARGET DESC: Receptor-interacting serine/threonine-protein kinase 1 (Homo sapiens)
- Sequence (Q13546 whole entry): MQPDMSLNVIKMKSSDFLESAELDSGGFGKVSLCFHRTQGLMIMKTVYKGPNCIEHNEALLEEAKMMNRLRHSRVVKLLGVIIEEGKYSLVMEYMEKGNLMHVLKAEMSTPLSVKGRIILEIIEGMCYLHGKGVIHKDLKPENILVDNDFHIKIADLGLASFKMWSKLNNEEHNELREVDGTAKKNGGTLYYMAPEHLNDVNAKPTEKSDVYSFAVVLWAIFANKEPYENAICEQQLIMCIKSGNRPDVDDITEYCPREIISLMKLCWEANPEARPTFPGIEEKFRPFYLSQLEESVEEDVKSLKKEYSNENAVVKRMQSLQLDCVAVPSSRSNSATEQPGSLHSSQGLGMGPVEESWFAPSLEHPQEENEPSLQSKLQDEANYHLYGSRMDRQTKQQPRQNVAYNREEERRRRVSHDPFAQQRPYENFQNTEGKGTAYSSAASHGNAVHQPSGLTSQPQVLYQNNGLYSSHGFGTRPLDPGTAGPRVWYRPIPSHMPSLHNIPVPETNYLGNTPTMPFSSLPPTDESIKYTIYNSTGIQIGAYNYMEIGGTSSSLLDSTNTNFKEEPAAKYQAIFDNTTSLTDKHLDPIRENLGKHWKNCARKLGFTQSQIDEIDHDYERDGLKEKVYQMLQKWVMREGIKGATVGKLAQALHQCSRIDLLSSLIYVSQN
MEASURED QUANTITY: IC50

1. CCn1nc(-c2ccc3c(c2)CCN3C(C)=O)c2c(N)n[nH]c(=O)c21: > 1000 nM
2. CCn1nc(-c2ccc3c(c2)CCN3C(=O)Cc2ccccc2)c2c(N)n[nH]c(=O)c21: > 1000 nM

Report IC50 under test system Receptor-interacting serine/threonine-protein kinase 1 (Homo sapiens) for CCn1nc(-c2ccc3c(c2)CCN3C(=O)c2cccc(OC(F)(F)F)c2)c2c(N)n[nH]c(=O)c21 .
> 1000 nM
